Sourced from paper PMC7339578

- experiment: Stability tests of analytes in rat plasma QC samples
- Assay type: in vitro ADME
- recorded_conditions: rat plasma, nominal conc. 400 nM
quantity: Extracted samples at 8 °C for 18 h, Mean±SD (nM)
Write the number in nM without appending the unit.

Lab note: O=C1CCC[C@@H]2[C@H]3CCCN4CCC[C@@H](CN12)[C@@H]34 gave Extracted samples at 8 °C for 18 h, Mean±SD of 402.13

Lab note: CC(C)=CCC[C@](C)(O)[C@H]1CC[C@]2(C)[C@@H]1[C@H](O)C[C@@H]1[C@@]3(C)CC[C@H](O)C(C)(C)[C@@H]3[C@@H](O[C@@H]3O[C@H](CO)[C@@H](O)[C@H](O)[C@H]3O[C@@H]3O[C@@H](C)[C@H](O)[C@@H](O)[C@H]3O)C[C@]12C [Compound C5, Ginsenoside Rg2] gave Extracted samples at 8 °C for 18 h, Mean±SD of 404.47

Lab note: CC(C)=CCC[C@](C)(O)[C@H]1CC[C@]2(C)[C@@H]1[C@H](O)C[C@@H]1[C@@]3(C)CC[C@H](O)C(C)(C)[C@@H]3[C@@H](O[C@@H]3O[C@H](CO)[C@@H](O)[C@H](O)[C@H]3O[C@@H]3O[C@H](CO)[C@@H](O)[C@H](O)[C@H]3O)C[C@]12C [Compound C7, Ginsenoside Rf] gave Extracted samples at 8 °C for 18 h, Mean±SD of 392.21

Lab note: O=C1C=CC[C@@H]2[C@H]3CCC[N+]4([O-])CCC[C@@H](CN12)[C@@H]34 (stereo partly drawn) gave Extracted samples at 8 °C for 18 h, Mean±SD of 432.22

Lab note: CC(C)(O)[C@@H]1CC[C@](C)([C@H]2[C@@H](O)C[C@@]3(C)[C@@H]4C[C@H](O)[C@H]5C(C)(C)[C@@H](O[C@@H]6OC[C@@H](O)[C@H](O)[C@H]6O[C@@H]6O[C@H](CO)[C@@H](O)[C@H](O)[C@H]6O)CC[C@@]56C[C@@]46CC[C@]23C)O1 [Compound B3, Astragaloside III] gave Extracted samples at 8 °C for 18 h, Mean±SD of 400.78

Lab note: CC(C)=CCC[C@](C)(O[C@@H]1O[C@H](CO)[C@@H](O)[C@H](O)[C@H]1O)[C@H]1CC[C@]2(C)[C@@H]1[C@H](O)C[C@@H]1[C@@]3(C)CC[C@H](O[C@@H]4O[C@H](CO)[C@@H](O)[C@H](O)[C@H]4O[C@@H]4O[C@H](CO)[C@@H](O)[C@H](O)[C@H]4O)C(C)(C)[C@@H]3CC[C@]12C [Compound D2, Ginsenoside Rd] gave Extracted samples at 8 °C for 18 h, Mean±SD of 411.97

====

- experiment: Plasma pharmacokinetics in rats after a 30-min intravenous infusion of Kang-Ai injection
- Format: in vivo, Sprague–Dawley rats
- recorded_conditions: male, Sprague-Dawley, rat, in vivo, iv
quantity: clearance (mL/min)
Write the number in mL/min without appending the unit.

Lab note: CC(C)=CCC[C@](C)(O)[C@H]1CC[C@]2(C)[C@@H]1[C@H](O)C[C@@H]1[C@@]3(C)CC[C@H](O)C(C)(C)[C@@H]3[C@@H](O[C@@H]3O[C@H](CO)[C@@H](O)[C@H](O)[C@H]3O[C@@H]3O[C@@H](C)[C@H](O)[C@@H](O)[C@H]3O)C[C@]12C [Compound C5, Ginsenoside Rg2] gave clearance of 2.63

Lab note: CC(C)=CCC[C@](C)(O)[C@H]1CC[C@]2(C)[C@@H]1[C@H](O)C[C@@H]1[C@@]3(C)CC[C@H](O)C(C)(C)[C@@H]3[C@@H](O[C@@H]3O[C@H](CO)[C@@H](O)[C@H](O)[C@H]3O[C@@H]3O[C@H](CO)[C@@H](O)[C@H](O)[C@H]3O)C[C@]12C [Compound C7, Ginsenoside Rf] gave clearance of 1.82
